target: T1, biotinylated human plasma Kallikrein (human, UniProt P03952 20-638, biotinylated)
T1 construct: also called Biotinylated hPK
T1 sequence (P03952 20-638 limits assumed): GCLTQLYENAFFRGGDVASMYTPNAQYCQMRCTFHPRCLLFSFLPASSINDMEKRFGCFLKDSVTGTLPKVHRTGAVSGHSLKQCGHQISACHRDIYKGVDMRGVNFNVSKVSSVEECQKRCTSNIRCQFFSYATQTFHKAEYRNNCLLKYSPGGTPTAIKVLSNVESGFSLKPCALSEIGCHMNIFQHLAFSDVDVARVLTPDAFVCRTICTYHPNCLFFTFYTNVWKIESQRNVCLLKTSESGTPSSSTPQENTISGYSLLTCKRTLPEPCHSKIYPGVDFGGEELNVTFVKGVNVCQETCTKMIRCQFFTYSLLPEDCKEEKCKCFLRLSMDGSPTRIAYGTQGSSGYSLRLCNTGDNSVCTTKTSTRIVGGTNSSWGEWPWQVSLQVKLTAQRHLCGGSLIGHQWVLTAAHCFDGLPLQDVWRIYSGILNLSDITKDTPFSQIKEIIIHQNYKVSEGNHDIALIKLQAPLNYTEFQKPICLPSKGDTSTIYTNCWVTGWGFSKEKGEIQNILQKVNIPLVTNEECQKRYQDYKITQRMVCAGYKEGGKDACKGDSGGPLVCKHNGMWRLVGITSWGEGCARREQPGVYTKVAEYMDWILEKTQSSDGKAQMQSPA
protocol_description: phage binding assay
Numbered stars: 1 amine (or outer) side, 2 acyl side, 3 side chain; on linkers, the order of the positions; unused ones are H or OH. Bridge positions count the residues as written; N and C are the ends. Ends that are not written are not given here. TBMB = c1c(C[*:1])cc(C[*:3])cc1C[*:2]

| binder | Rank (by Kallikrein binding) |
| --- | --- |
| CSWLARCTHQDLC (linker 1-7-13 via TBMB) [SEQ ID NO 76] | 4 |
| CRFPFKCTHQDLC (linker 1-7-13 via TBMB) [SEQ ID NO 83] | 11 |
| CSYPIRCTHQDLC (linker 1-7-13 via TBMB) [SEQ ID NO 90] | 18 |
| CSFPFKCTHQDLC (linker 1-7-13 via TBMB) [SEQ ID NO 78] | 6 |
| CSWAARCTHQDLC (linker 1-7-13 via TBMB) [SEQ ID NO 79] | 7 |
| CSYPYRCTHQDLC (linker 1-7-13 via TBMB) [SEQ ID NO 98] | 26 |
| CSWPYRCTHQDLC (linker 1-7-13 via TBMB) [SEQ ID NO 82] | 10 |
| CSHPFRCTHQDLC (linker 1-7-13 via TBMB) [SEQ ID NO 81] | 9 |
| CSWSARCTHQDLC (linker 1-7-13 via TBMB) [SEQ ID NO 91] | 19 |
| CSWHARCTHQDLC (linker 1-7-13 via TBMB) [SEQ ID NO 96] | 24 |
| CSWPFRCTHQDLC (linker 1-7-13 via TBMB) [SEQ ID NO 86] | 14 |
